Value source: ChEMBL document CHEMBL2331094

target: Lysophosphatidic acid receptor 4 (Homo sapiens); experiment: Intrinsic activity at human LPA4 receptor transfected in HEK293 cells after 1 hr by TGFalpha shedding assay in presence of Ki16425 relative to LPA; type: cell-based
Sequence (Q99677 whole entry): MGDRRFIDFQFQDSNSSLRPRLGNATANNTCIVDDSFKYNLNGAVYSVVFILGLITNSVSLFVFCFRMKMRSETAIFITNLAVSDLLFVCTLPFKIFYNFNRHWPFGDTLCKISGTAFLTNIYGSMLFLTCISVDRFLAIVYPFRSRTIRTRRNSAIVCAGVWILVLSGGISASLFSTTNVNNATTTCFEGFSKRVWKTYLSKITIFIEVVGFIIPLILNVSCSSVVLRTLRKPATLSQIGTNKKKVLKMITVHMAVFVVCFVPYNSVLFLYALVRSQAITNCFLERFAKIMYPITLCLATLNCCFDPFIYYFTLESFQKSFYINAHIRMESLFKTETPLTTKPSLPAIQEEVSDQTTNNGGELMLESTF
Mark YES for reported Intrinsic activity of 2 or greater; mark NO for anything smaller.

QUERY: Does the compound CCCCCCCCCCCCCCCCCC(=O)OCC(COP(=O)(O)S)OC (racemic) have recorded Intrinsic activity that is 2 or more?
RESULT: YES

QUERY: Reported Intrinsic activity reaches at least 2 for CCCCCCCCCCCCCCCC(=O)OC[C@@H](O)COP(=O)(O)O ?
RESULT: NO

QUERY: Dear colleague, could you confirm whether CCCCCCCCCCCCCCCCCC(=O)OC[C@H](COP(O)(O)=S)OC has Intrinsic activity at or above 2?
RESULT: NO

QUERY: Decide: is the reported value of Intrinsic activity for CCCCCCCCCCCCCCCCCCOC[C@H](COP(O)(O)=S)OC equal to or greater than 2?
RESULT: YES

QUERY: Is the recorded value of Intrinsic activity equal to or greater than 2 for this compound? CCCCCCCC/C=C\CCCCCCCC(=O)OC[C@@H](O)COP(=O)(O)O
RESULT: NO

QUERY: Check if Intrinsic activity >= 2 (inclusive). Item: CCCCCCCCCCCCCCCCCCOC[C@@H](COP(O)(O)=S)OC
RESULT: YES
